test: Bioavailability in mice was reported; format: ADME, organism-based; conditions: mouse, in vivo
test-readout: bioavailability

INSERT INTO assay_data (compound, value_observed) VALUES
  ('OC(CN(Cc1cccc(OC(F)(F)C(F)F)c1)c1cccc(Oc2ccccc2)c1)C(F)(F)F (stereo unspecified)', '< 10%');

----------
Measured pIC50, listed per entry for reference.
target: Cholesteryl ester transfer protein (Homo sapiens); test: Concentration required for 50% inhibition of cholesteryl ester transfer protein in presence of buffer.
Sequence (P11597 whole entry): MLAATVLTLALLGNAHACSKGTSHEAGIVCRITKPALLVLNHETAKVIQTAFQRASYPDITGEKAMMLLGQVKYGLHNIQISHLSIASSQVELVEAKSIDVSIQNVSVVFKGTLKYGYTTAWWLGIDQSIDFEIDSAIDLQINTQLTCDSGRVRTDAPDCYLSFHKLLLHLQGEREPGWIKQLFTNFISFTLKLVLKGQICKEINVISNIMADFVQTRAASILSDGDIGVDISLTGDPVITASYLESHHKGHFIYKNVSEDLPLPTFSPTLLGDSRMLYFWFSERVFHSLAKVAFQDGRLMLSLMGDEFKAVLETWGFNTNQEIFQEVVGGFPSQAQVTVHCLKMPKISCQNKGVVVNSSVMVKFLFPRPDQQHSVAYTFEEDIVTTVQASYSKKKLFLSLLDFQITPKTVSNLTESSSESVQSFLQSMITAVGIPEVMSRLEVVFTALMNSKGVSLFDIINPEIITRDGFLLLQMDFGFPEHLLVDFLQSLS
pIC50: −log10 of the molar value.
test-readout: pIC50

INSERT INTO results (compound, sign_qualifier, value_observed) VALUES
  ('C=CC(O)CN(Cc1cccc(OC(F)(F)F)c1)c1cccc(Oc2ccccc2)c1 (configuration not stated)', '<', 4.30),
  ('CC(C)(O)c1cccc(CN(CC(O)C(F)(F)F)c2cccc(Oc3ccccc3)c2)c1 (configuration not stated)', '=', 5.11),
  ('OC(CN(Cc1cccc(C(F)(F)F)c1)c1cccc(F)c1)C(F)(F)F (configuration not stated)', '=', 4.43),
  ('Cc1ccc(CN(CC(O)C(F)(F)F)c2cccc(F)c2)cc1 (configuration not stated)', '=', 4.19),
  ('CC(C)(C)Oc1cccc(CN(CC(O)C(F)(F)F)c2cccc(Oc3ccccc3)c2)c1 (configuration not stated)', '=', 6.18),
  ('OC(Cc1ccccc1)CN(Cc1cccc(OC(F)(F)F)c1)c1cccc(Oc2ccccc2)c1 (configuration not stated)', '<', 4.30),
  ('OC(CN(Cc1cccc(OC(F)(F)C(F)F)c1)c1cccc(F)c1)C(F)(F)F (configuration not stated)', '=', 5.35),
  ('Cc1ccccc1CN(CC(O)C(F)(F)F)c1cccc(F)c1 (configuration not stated)', '<', 4.00),
  ('OC(COc1cccc(CN(CC(O)C(F)(F)F)c2cccc(Oc3ccccc3)c2)c1)C(F)(F)F (configuration not stated)', '=', 5.89),
  ('Cc1ccc(N(Cc2cccc(C(F)(F)F)c2)CC(O)C(F)(F)F)cc1 (configuration not stated)', '<', 4.00),
  ('COC(=O)c1cccc(CN(CC(O)C(F)(F)F)c2cccc(Oc3ccccc3)c2)c1 (configuration not stated)', '=', 4.80),
  ('Cc1ccccc1N(Cc1cccc(C(F)(F)F)c1)CC(O)C(F)(F)F (configuration not stated)', '<', 4.00),
  ('COc1cccc(CN(CC(O)C(F)(F)F)c2cccc(Oc3ccccc3)c2)c1 (configuration not stated)', '=', 4.82),
  ('OC(CN(Cc1cccc(C(F)(F)F)c1)c1cccc(Cl)c1)C(F)(F)F (configuration not stated)', '=', 4.92),
  ('OC(CN(Cc1cccc(Oc2cccc(C(F)(F)F)c2)c1)c1cccc(F)c1)C(F)(F)F (configuration not stated)', '<', 4.00),
  ('OC(CN(Cc1cccc(C2CCCC2)c1)c1cccc(Oc2ccccc2)c1)C(F)(F)F (configuration not stated)', '=', 6.52),
  ('OC(CN(Cc1cccc(OC(F)(F)F)c1)c1cccc(Oc2ccccc2)c1)c1ccccc1 (configuration not stated)', '<', 4.30);

Hello, the source for this data is ChEMBL document CHEMBL1135762, in case you need it.
